- Tested on: CCRF-CEM leukemia
- METHOD NOTES: NCI-60 one-dose screen, 48 h
- EXPERIMENTAL CONDITIONS: 10 µM unless noted
This is part of a sample that, as a whole, favours compounds with a hit. Of some 83,000 tested, about 20% had one in any assay. The source made the active and inactive calls. Rule for the calls: active = growth percent below 10; inactive = the rest.
Entry note: the call must match one of True = active, False = inactive

## Input For COc1ccc2c(c1)CC[C@@H]1[C@@H]2CC[C@]2(C)C3C(=CCC4C(=O)N(c5ccccc5)C(=O)C43)C[C@@H]12 (some centres not stated) , what call appears in the results of this test?
## Output False

## Input Per the assay record, what outcome was assigned to CCCCC(NC(=O)CN1C(=O)/C(=C/C(C)=C/c2ccccc2)SC1=S)C(=O)O (configuration not stated) ?
## Output False

## Input In this assay, the call recorded for `O=C(/C=C/c1cccs1)Nc1ncc(Cc2ccc(Cl)c(Cl)c2)s1` was what?
## Output False

---

- System: HCT-116 colon
- METHOD NOTES: NCI-60 one-dose screen, 48 h
- EXPERIMENTAL CONDITIONS: 10 µM unless noted
The panel holds about 83,000 compounds, 20% with a hit somewhere; the sample as a whole holds those more often. The source made the active and inactive calls. Rule for the calls: active = growth percent below 10; inactive = the rest.
Thanks in advance; please answer with one of these: active, inactive

- O=C(N=Nc1c(O)[nH]c2ccccc12)Nc1ccc(Br)cc1: inactive
- COc1ccc(/C(C)=C(\c2ccc(OCCN3CCCCCC3)cc2)c2ccc(OC(=O)C3CCCCC3)cc2)cc1: active
- CCCNNC(=O)/C=C/c1ccc(CNCCc2c(C)[nH]c3ccccc23)cc1: active
- O=S(=O)(Nc1ccc(F)cc1)c1ccc(-c2cnc(C3CC3)o2)cc1: inactive
- O=C(Cn1cc(CN2CCN(c3ccnc4cc(Cl)ccc34)CC2)nn1)Nc1cccc([N+](=O)[O-])c1: inactive
- CCCO/N=C/c1ccccn1: inactive
- NCCOCCOc1ccccc1: inactive
- O=c1ccc2nc(-c3ccccn3)nn(-c3ccccc3)c-2c1: inactive

## Input Tell me the assay call for `Cc1ccc(NC(=O)c2sc3nc(C)c(C(=O)c4ccccc4)cc3c2N)cc1` please.
## Output inactive

## Input Query: recorded result category for `COc1cc(F)c(/C=C/c2cc(/C=C/c3cc(OC)c(OC)cc3F)n(-c3cc(F)cc(F)c3)n2)cc1OC` in this test
## Output inactive

## Input Answer briefly: the call reported for `CCN(CC)CC(=O)Nc1ccc2ncnc(Nc3ccc(Oc4cccc(F)c4)c(Cl)c3)c2c1` in this assay.
## Output inactive

## Input # outcome recorded in this test, key = `COC1=CC(c2ccc[nH]2)=N/C1=C\c1[nH]c(C)c(C(=O)Oc2ccccc2)c1C`
## Output active

## Input What did the test return for CCCCCCCCCCCCCCCC(=O)O[C@@H]1[C@@H](O)[C@@H](O)C([C@H](NC(=O)[C@@H]2C[C@@H](CCC)CN2C)[C@H](C)Cl)O[C@@H]1SC (stereo partly drawn) ?
## Output inactive

## Input Outcome logged for `CC(=O)c1nn(-c2ccccc2)/c(=N/N=Cc2cn(-c3ccccc3)nc2-c2cc3ccccc3oc2=O)s1` in this assay:
## Output inactive

## Input Per the records of this test, what outcome belongs to `COc1ccccc1/C=C1\COc2ccc(O)c(O)c2C1=O` ?
## Output active

## Input Could you check what this test reported for `C[C@@H]1CC[C@@H]2[C@@H]1[C@H](OC(=O)/C=C/c1ccccc1)[C@]1(c3ccccc3)C[C@@H](NC(=O)CO)[C@@]2(C)O1` ?
## Output inactive

---

- Tested on: MDA-MB-231 breast
- METHOD NOTES: NCI-60 one-dose screen, 48 h (100 = growth as untreated, 0 = no growth, -100 = all killed)
- EXPERIMENTAL CONDITIONS: 10 µM unless noted
This is part of a sample that, as a whole, favours compounds with a hit. Of some 83,000 tested, about 20% had one in any assay. Active and inactive are the calls of the source. How the source made its calls: active means growth percent below 10; inactive means the rest.
METRIC NAME: growth

Would you please look over these solved cases?
• O=C(NCCCN1CCCCC1)c1ccc(-c2nc3ccc4[nH]ncc4c3c3c2CCCC3)cc1 = 54.9% (inactive)
• N#Cc1ccccc1-c1ccc(Cn2c(-c3cscn3)nc3c(Cl)cccc32)cc1 = 79.7% (inactive)
• COc1ccc2c(O)c(/C=C3\N=Nc4nc(C)ccc43)oc2c1CC1CCNCC1 = 34.6% (inactive)
• COC(=O)c1nc(-c2ccccc2)oc1S(=O)(=O)N(C)CCO = 78.3% (inactive)
• c1ccc(Cc2cccc[n+]2C(c2ccccc2)c2ccccc2)cc1 = 68.2% (inactive)
• CN(C)CCN1C(=O)c2c(c3c4ccccc4n4c3c3c2c2ccccc2n3C2CC(O)C(O)C4(C)O2)C1=O (centres undefined) = 58.4% (inactive)
• COc1ccc(C/C(C)=C(/c2ccc(OCCN3CCCCCC3)cc2)c2ccc(OC(=O)c3ccccc3)cc2)cc1 = 104% (inactive)
• CN1CCN(CCNC(=O)c2cccc(CN3c4cccc5c4C(=Cc4cccnc43)N(C)C5=O)c2)CC1 = 31.7% (inactive)
• COc1c(F)cc(-n2c(C(=O)N3CC(F)C3)cc3cccnc32)cc1F = 96.5% (inactive)
• CCNC(=O)Oc1ccc(/C(=C(/C)Cc2ccc(OC)cc2)c2ccc(OCCN(CC)CC)cc2)cc1 = 45% (inactive)

Now look at this one.
## Input Given `COc1ccc(/C(C)=C(\c2ccc(OCCN3CCCCCC3)cc2)c2ccc(OC(=O)C3CCCCC3)cc2)cc1` , state its recorded growth.
## Output -84.1% (active)

---

- System: HCT-116 colon
- METHOD NOTES: NCI-60 one-dose screen, 48 h
- EXPERIMENTAL CONDITIONS: 10 µM unless noted
Compounds without any hit were thinned out: in the full panel of roughly 83,000, 20% have a hit. Calls of active or inactive are those of the source. Rule for the calls: active = growth percent below 10; inactive = the rest.
Please reply with one of these outcomes: true (1) = active, false (0) = inactive

Use these answered entries as a reference point.
- N=C1/C(=C2\NC3C=CC=CC3S2)C(c2ccc(Cl)cc2)C2C(=O)N(c3ccccc3)C(=S)N12 (centres undefined): false (0)
- Clc1ccc2c(NCCN3CCN(c4ccnc(N5CCCC5)n4)CC3)ccnc2c1: true (1)

## Input Given `COc1cc(OC)cc(-c2ccc(-c3ccc(C(=N)N)cn3)s2)c1` , state the outcome it received in this test.
## Output true (1)

## Input Could you please tell me the result logged for `O=C(NCc1ccc(Cn2c(=O)sn(-c3ccc(Cl)cc3)c2=O)cc1)OCc1ccc2c(Cl)cc(Cl)c(O)c2n1` in this assay?
## Output false (0)

---

- Tested on: UACC-62 melanoma
- METHOD NOTES: NCI-60 one-dose screen, 48 h (100 = growth as untreated, 0 = no growth, -100 = all killed)
- EXPERIMENTAL CONDITIONS: 10 µM unless noted
The panel holds about 83,000 compounds, 20% with a hit somewhere; the sample as a whole holds those more often. The source made the active and inactive calls. How the source made its calls: active means growth percent below 10; inactive means the rest.
Some molecules, each annotated with its measured growth.

Field: example entries. Status: answers known.
- O=C(NCc1ccc(Cn2c(=O)sn(-c3ccc(Cl)cc3)c2=O)cc1)OCc1ccc2c(Cl)cc(Cl)c(O)c2n1: 33.4% (inactive)
- Nc1ncnc2c1C(c1ccc([N+](=O)[O-])cc1)c1sc3c(F)cccc3c1O2 (stereo not given): 81% (inactive)
- Cc1ccc(Nc2nc(-c3cc(O)c(C)c(C)c3O)cs2)cc1: 92.7% (inactive)
- CCCCn1c(C(=O)c2c[nH]c3ccccc23)n[nH]c1=S: 81.7% (inactive)

## Input Dear colleague, I am looking for the recorded growth of the following molecule: COc1ccc2nc3cc(Cl)ccc3c(NCCCNCCC(C)O)c2c1 (stereo not given)
## Output -57% (active)

## Input Look at this molecule and give its reported growth. `COc1ccc(-c2[nH]c3ccccc3c2-c2ccc(OC)cc2)cc1`
## Output 56.7% (inactive)

---

- System: HOP-62 NSCLC
- METHOD NOTES: NCI-60 one-dose screen, 48 h
- EXPERIMENTAL CONDITIONS: 10 µM unless noted
Compounds without any hit were thinned out: in the full panel of roughly 83,000, 20% have a hit. Activity calls are given as the source filed them. How the source made its calls: active means growth percent below 10; inactive means the rest.
Hello, when you answer, please use one of the following outcomes: active, inactive

A selection of reference data follows.
* C#CCOc1cccc(Nc2ncc3ncn(C4CCN(C(=O)CCl)C4)c3n2)c1 (stereo unspecified) | inactive
* ON=C1CCCCCCCC1 | inactive
* CCCCn1c(C(=O)c2c[nH]c3ccccc23)n[nH]c1=S | inactive
* O=C1/C(=C/c2ccc(-c3ccccc3C(F)(F)F)o2)SC(=S)N1CCc1ccc(O)cc1 | inactive
* Cc1c(O)c(O)cc2c3c(oc12)CC(c1ccc2c(c1)OCO2)CC3=O (stereo unspecified) | inactive

API: the following record is the query input.
## Input Tell me the assay call for COc1ccc2nc3cc(Cl)ccc3c(NCCCNCCC(C)O)c2c1 (stereo unspecified) please.
## Output active

The values you see were collected from PubChem BioAssay (NCI).
